# ASSAYED_SYSTEM: Apelin receptor (Homo sapiens) (UniProt P35414)
# EXPERIMENT: potency against CXCR6 with APJ panel – cell-based, beta-arrestin, DiscoveRx, uHTS hits, dose response (AID 624129)
# TEST_CONTEXT: CXCR6 beta-arrestin (DiscoveRx) antagonist cell assay, APJ, run 3, dose range 1
MEASURED_METRIC: pIC50
The read-out pIC50 is expressed as -log10 of concentration in moles per litre.

Answered cases to consult:
{"COMPOUND": "CC(=NNc1nc2ccccc2s1)c1ncccn1", "MEASURED_METRIC": "pIC50", "OBS_VALUE": 4.83}
{"COMPOUND": "Cc1cccc(CSc2cccc3cccnc23)c1", "MEASURED_METRIC": "pIC50", "OBS_VALUE": 5.39}
{"COMPOUND": "CC(C)(C)c1ccc(-n2nc(C#N)c(Cl)cc2=O)cc1", "MEASURED_METRIC": "pIC50", "OBS_VALUE": 4.96}
{"COMPOUND": "CNc1cc(Cl)c2nonc2c1[N+](=O)[O-]", "MEASURED_METRIC": "pIC50", "OBS_VALUE": 4.82}
{"COMPOUND": "Cc1ccc(OCCN2C(=O)c3ccccc3C2=O)c([N+](=O)[O-])c1", "MEASURED_METRIC": "pIC50", "OBS_VALUE": 5.28}
{"COMPOUND": "Cc1ccc(OCCn2c(NC(=O)c3ccco3)nc3ccccc32)cc1", "MEASURED_METRIC": "pIC50", "OBS_VALUE": 4.97}
{"COMPOUND": "CCn1c(Cl)c(C=O)s/c1=N\\S(=O)(=O)c1ccccc1", "MEASURED_METRIC": "pIC50", "OBS_VALUE": 5.25}
{"COMPOUND": "N#Cc1c(C#N)c(SSc2c(C#N)c(C#N)c(N)n2-c2ccccc2)n(-c2ccccc2)c1N", "MEASURED_METRIC": "pIC50", "OBS_VALUE": 5.67}

Check the records and state pIC50 for COc1ccc(CCN2C(=O)C=CC2=O)cc1OC
4.35

For the compound Cc1ccsc1/C=C/c1ccc2cccc(O)c2n1 , report pIC50.
5.17

Return pIC50 for the following compound: N=C1S/C(=C\c2ccco2)C(=O)N1c1nccs1
4.97

Using the record for Cc1c(Nc2cc(Cl)c3nonc3c2[N+](=O)[O-])c(=O)n(-c2ccccc2)n1C , state its measured pIC50.
5.38

In one line, give reported pIC50 of the entry C/C(=N\NC(=O)Cn1c(-c2ccccn2)nc2ccccc21)c1ccccc1 .
4.62

Assign pIC50 to the following record: COC(=O)c1ccc2c(c1)C(C)(C)C(/C=C/c1ccc(OC)c(OC)c1OC)=[N+]2C
4.80

Answer with the recorded pIC50 for the compound listed here: O=C1C=CC(=O)N1Cc1ccccc1
5.01

Tell me measured pIC50 for CCC(=O)OCCNc1cc(Sc2nccn2C)c2nonc2c1[N+](=O)[O-] please.
5.22

Look up and report measured pIC50 for this entry: COC(=O)C1=C(c2ccc(-c3ccccc3)c(F)c2)C[C@@H]2CC[C@H]1N2C(=O)N1CCC(C)CC1
4.99

Identify the reported pIC50 for the following entry. CCOC(=O)c1c(SCCN2CCCCC2)n(-c2ccccc2)c(=S)n(-c2ccccc2)c1=O
5.14

Recall and state the measured pIC50 for Cc1ccnc(N2C(=O)c3cccc4c([N+](=O)[O-])ccc(c34)C2=O)c1 .
5.31

Please give the documented pIC50 of COc1ccc(C2CC(c3c(O)n(CCc4ccccc4)c(=O)[nH]c3=O)=NN2)cc1OC (centres undefined)
4.98

For the compound O=C1C(Cc2ccccc2)Nc2ncnc(N3CCN(c4ccccc4)CC3)c2N1Cc1ccc(Cl)cc1 (centres undefined) , report pIC50.
4.27

Identify the reported pIC50 for the following entry. CCN(CC)CC(C)(C)C(=O)/C=C/c1ccc(/C=C/C(=O)C(C)(C)CN(CC)CC)cc1
5.42

Indicate its recorded pIC50; the compound in question is NNc1nc(-c2ccccc2)cc(-c2ccccc2O)n1
5.00

Input CN(C)S(=O)(=O)c1cccc(NC(=O)CSc2cccc3cccnc23)c1 , output reported pIC50.
4.31

Indicate its recorded pIC50; the compound in question is O=C(NNC(=O)C12CC3CC(CC(C3)C1)C2)c1ccccn1
5.06

Supply measured pIC50 of CS(=O)(=O)c1ccc(C(=O)OCc2nnc(-c3ccccc3)o2)cc1[N+](=O)[O-] in your reply.
5.41

---

Here the recorded pIC50 is given for each entry.
# ASSAYED_SYSTEM: C-X-C chemokine receptor type 6 (Homo sapiens) (UniProt O00574)
# Sequence (O00574 whole entry, looked up): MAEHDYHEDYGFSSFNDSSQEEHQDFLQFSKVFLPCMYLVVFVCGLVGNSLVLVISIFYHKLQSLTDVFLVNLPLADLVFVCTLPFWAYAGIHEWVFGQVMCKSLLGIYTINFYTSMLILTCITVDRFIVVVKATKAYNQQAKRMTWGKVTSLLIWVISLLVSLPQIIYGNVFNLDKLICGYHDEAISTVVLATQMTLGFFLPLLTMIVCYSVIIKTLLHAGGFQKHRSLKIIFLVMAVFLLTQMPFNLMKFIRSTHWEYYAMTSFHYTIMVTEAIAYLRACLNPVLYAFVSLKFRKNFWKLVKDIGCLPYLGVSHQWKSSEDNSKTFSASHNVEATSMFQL
# EXPERIMENT: potency against CXCR6 with APJ panel – cell-based, beta-arrestin, DiscoveRx, uHTS hits, dose response (AID 624129)
# TEST_CONTEXT: CXCR6 beta-arrestin (DiscoveRx) antagonist cell assay, CXCR6, dose range 1, mean IC50 across replicates
// field semantics: pIC50 = negative decimal log of concentration (mol/L)

Check C-X-C chemokine receptor type 6 (Homo sapiens) (UniProt O00574) data and give pIC50 for CCOC(=O)[C@]12Cc3cc(Cl)ccc3[C@H]1N(C1CCCCC1)C(=O)c1cc(OC)ccc12 .
4.75

State pIC50 (C-X-C chemokine receptor type 6 (Homo sapiens) (UniProt O00574)) of CC(C)(C)c1ccc(CN2N=Nc3ccccc3S2(=O)=O)cc1 .
4.79

---

# ASSAYED_SYSTEM: UniProt P35414
# EXPERIMENT: potency against CXCR6 with APJ panel – cell-based, beta-arrestin, DiscoveRx, uHTS hits, dose response (AID 624129)
# TEST_CONTEXT: CXCR6 beta-arrestin (DiscoveRx) antagonist cell assay, APJ, run 2, dose range 1
The following compounds are listed with their measured pIC50 values.
Note: pIC50 values are expressed as the negative base-10 logarithm of concentration in M.

{"COMPOUND": "Cc1ccc2c(c1)C1CN(C)CCC1N2C(=S)NC(=O)c1ccc(Br)cc1 (stereo unspecified)", "pIC50": 4.96}
{"COMPOUND": "COc1ccc(OC)c2sc(N(CCCN(C)C)C(=O)CCS(=O)(=O)c3ccccc3)nc12", "pIC50": 4.74}
{"COMPOUND": "COC(=O)c1ccc2c(c1)C(C)(C)C(/C=C/c1ccccc1O)=[N+]2C", "pIC50": 4.85}
{"COMPOUND": "CC(Oc1cccc(Cl)c1)C(=O)Nc1nc(-c2ccccn2)cs1 (stereo unspecified)", "pIC50": 5.06}
{"COMPOUND": "CCOc1ccc2nc(NC(=O)c3ccccn3)sc2c1", "pIC50": 4.46}

Tell me measured pIC50 for O=[N+]([O-])c1c(Nc2ccccc2O)cc(Cl)c2nonc12 please.
4.61

---

# ASSAYED_SYSTEM: UniProt O00574
# EXPERIMENT: potency against CXCR6 with APJ panel – cell-based, beta-arrestin, DiscoveRx, uHTS hits, dose response (AID 624129)
# TEST_CONTEXT: CXCR6 beta-arrestin (DiscoveRx) antagonist cell assay, CXCR6, dose range 1
Active and inactive are the calls of the source. The rule behind the calls is not given here.
MEASURED_METRIC: IC50

{"COMPOUND": "O=S(=O)(Nc1cccc2cccnc12)c1ccccc1", "OBS_VALUE": "inactive"}
{"COMPOUND": "CCCC(=O)OCCNc1cc(Sc2nc3ccccc3[nH]2)c2nonc2c1[N+](=O)[O-]", "OBS_VALUE": "5.82 µM"}
{"COMPOUND": "CCCCCCN1C=C/C(=C\\C=C(C#N)C#N)c2ccccc21", "OBS_VALUE": "inactive"}
{"COMPOUND": "O=C(C#Cc1ccccc1)c1ccc([N+](=O)[O-])cc1", "OBS_VALUE": "2.67 µM"}
{"COMPOUND": "C=C1C(=O)C23C(O)C1CCC2C12CCCC(C)(COC(C)=O)C1C(O)C3(O)OC2 (stereo unspecified)", "OBS_VALUE": "6.64 µM"}

The record that follows has no IC50 shown yet.
Read the entry CNc1cc(Cl)c2nonc2c1[N+](=O)[O-] and write its reported IC50.
3.61 µM

---

# ASSAYED_SYSTEM: C-X-C chemokine receptor type 6 (Homo sapiens) (UniProt O00574)
# EXPERIMENT: potency against CXCR6 with APJ panel – cell-based, beta-arrestin, DiscoveRx, uHTS hits, dose response (AID 624129)
# TEST_CONTEXT: CXCR6 beta-arrestin (DiscoveRx) antagonist cell assay, CXCR6, dose range 1
Activity calls are given as the source filed them. The rule behind the calls is not given here.
MEASURED_METRIC: IC50

{"COMPOUND": "COc1ccc(/C=C/c2ccc3cccc(O)c3n2)c(OC)c1OC", "OBS_VALUE": "5 µM"}
{"COMPOUND": "COc1ccc(C(=O)/C=C/C(=O)N(CC(=O)NC2CCCCC2)Cc2ccccc2)c(O)c1", "OBS_VALUE": "> 80 µM (inactive)"}
{"COMPOUND": "Cn1c(=O)c([N+](=O)[O-])c(Cl)c2ccccc21", "OBS_VALUE": "inactive"}
{"COMPOUND": "CCN(c1ccccc1)S(=O)(=O)c1ccc(NC(=O)c2nc(S(C)(=O)=O)ncc2Cl)cc1", "OBS_VALUE": "10.8 µM"}
{"COMPOUND": "CCOC(=O)c1c(SCCN2CCCCC2)n(-c2ccccc2)c(=S)n(-c2ccccc2)c1=O", "OBS_VALUE": "11.1 µM"}
{"COMPOUND": "Oc1c(I)cc(Cl)c2cccnc12", "OBS_VALUE": "6.47 µM"}
{"COMPOUND": "O=C1C=CC2(C=C1)O[C@H](Cc1ccccc1)[C@@H](Cc1ccccc1)O2", "OBS_VALUE": "8.93 µM"}
{"COMPOUND": "O=[N+]([O-])c1c(NCCCO)cc(Sc2nc3ccccc3s2)c2nonc12", "OBS_VALUE": "inactive"}

Fill in reported IC50 for this entry: COc1ccc(OC)c(/C=C/c2ccc3cccc(O)c3n2)c1
4.15 µM

Fill in IC50 for record COc1ccc(OC)c2sc(N(CCCN(C)C)C(=O)CCS(=O)(=O)c3ccccc3)nc12
inactive

Given the compound Cc1ccc(/C=N/NC(=S)N2CCOCC2)cc1 , write its reported IC50.
4.96 µM
